Molecular target: ALDH2 (Homo sapiens)
Sequence (P05091 18-517): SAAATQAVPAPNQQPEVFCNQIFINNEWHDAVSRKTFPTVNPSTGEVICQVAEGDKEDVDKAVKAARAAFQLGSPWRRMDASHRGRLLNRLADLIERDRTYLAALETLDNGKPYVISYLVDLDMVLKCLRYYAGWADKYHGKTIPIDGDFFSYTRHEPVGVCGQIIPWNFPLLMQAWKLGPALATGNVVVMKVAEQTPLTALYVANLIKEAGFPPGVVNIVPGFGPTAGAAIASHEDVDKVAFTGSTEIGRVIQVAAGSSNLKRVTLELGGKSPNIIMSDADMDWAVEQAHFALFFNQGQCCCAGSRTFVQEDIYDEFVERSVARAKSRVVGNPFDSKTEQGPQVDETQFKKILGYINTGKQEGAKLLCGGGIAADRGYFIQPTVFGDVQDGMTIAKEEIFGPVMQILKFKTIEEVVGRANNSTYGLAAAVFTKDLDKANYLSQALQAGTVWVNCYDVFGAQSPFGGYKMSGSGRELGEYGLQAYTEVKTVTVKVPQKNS
Test: purified recombinant isozyme activity assay, NADH formation at […] nm with acetaldehyde and NAD+
property-measured: pIC50
Scale explanation: pIC50 corresponds to minus log10 of a concentration expressed in moles per litre.

The recorded pIC50 for CN(C)CCC(=O)c1ccc(Br)cc1 is 6.10

---

Molecular target: ALDH3A1 (Homo sapiens, UniProt P30838)
Sequence (P30838 2-453): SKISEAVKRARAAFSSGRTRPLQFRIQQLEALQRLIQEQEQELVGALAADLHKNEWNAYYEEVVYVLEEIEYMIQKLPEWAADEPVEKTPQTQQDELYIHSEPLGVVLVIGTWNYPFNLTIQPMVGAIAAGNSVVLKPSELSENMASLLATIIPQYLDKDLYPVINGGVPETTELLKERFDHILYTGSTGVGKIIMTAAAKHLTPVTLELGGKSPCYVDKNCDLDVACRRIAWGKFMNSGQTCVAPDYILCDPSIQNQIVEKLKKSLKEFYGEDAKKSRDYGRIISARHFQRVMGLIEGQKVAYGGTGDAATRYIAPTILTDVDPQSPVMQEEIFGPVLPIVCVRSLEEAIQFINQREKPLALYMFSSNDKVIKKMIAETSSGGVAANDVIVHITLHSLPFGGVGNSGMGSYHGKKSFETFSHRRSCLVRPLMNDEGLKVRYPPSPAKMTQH
Test: purified recombinant isozyme activity assay, NADH formation at […] nm with acetaldehyde and NAD+
property-measured: pIC50
Scale explanation: pIC50 corresponds to minus log10 of a concentration expressed in moles per litre.

The recorded pIC50 for CN(C)CCC(=O)c1ccc(Br)cc1 is 6.00

The measurements presented in this section are drawn from paper PMC5581033.
